Cited source for all entries: patent US9695154B2

target desc: recombinant human SAE enzyme (Homo sapiens, UniProt Q9UBT2)
Sequence (Q9UBT2 1-640): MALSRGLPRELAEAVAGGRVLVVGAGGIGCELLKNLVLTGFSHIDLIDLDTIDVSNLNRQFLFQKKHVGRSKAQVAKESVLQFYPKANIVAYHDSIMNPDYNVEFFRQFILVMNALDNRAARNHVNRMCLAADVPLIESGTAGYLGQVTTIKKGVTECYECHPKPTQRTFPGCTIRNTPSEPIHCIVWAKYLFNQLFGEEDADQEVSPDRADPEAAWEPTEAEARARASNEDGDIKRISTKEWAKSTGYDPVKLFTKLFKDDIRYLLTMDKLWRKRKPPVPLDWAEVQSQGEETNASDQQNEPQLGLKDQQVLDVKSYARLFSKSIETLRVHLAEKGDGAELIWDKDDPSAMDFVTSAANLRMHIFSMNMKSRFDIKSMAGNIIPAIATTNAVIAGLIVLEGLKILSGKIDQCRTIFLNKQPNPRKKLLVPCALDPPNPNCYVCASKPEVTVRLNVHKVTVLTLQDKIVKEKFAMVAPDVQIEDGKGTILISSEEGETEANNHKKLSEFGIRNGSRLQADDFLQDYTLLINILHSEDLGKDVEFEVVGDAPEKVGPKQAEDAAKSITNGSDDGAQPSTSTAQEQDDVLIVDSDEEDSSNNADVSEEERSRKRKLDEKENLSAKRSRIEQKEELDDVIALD
Sequence (Q9UBE0 1-346 partner): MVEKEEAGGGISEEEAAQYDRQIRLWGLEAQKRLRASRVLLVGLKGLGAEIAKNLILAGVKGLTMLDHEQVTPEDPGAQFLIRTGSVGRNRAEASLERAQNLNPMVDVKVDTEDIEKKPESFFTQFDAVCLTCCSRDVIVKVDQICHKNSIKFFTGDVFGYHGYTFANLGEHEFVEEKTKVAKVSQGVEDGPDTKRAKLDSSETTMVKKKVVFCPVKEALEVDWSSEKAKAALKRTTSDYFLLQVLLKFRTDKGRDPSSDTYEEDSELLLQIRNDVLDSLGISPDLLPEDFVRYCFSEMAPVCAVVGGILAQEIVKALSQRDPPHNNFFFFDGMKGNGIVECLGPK
experimental details: SAE HTRF Enzyme Assay
Format: biochemical
experimental context: compound concentration 0.111 μM; read-out: Percent Inhibition

{"compound": "NS(=O)(=O)OC[C@H]1C[C@@H](Nc2ncncc2C(=O)c2ccn(Cc3ccccc3)n2)[C@H](F)[C@@H]1O", "inhibition at 0.111 µM [%]": 97}
{"compound": "NS(=O)(=O)OC[C@H]1C[C@@H](Nc2ncncc2C(=O)c2ccn(CC(=O)c3cccc(Cl)c3)n2)[C@H](O)[C@@H]1O", "inhibition at 0.111 µM [%]": 97}
{"compound": "NS(=O)(=O)OC[C@H]1C[C@@H](Nc2ncncc2C(=O)c2ccn(Cc3cccc(Cl)c3)n2)[C@H](O)[C@@H]1O", "inhibition at 0.111 µM [%]": 97}
{"compound": "NS(=O)(=O)OC[C@H]1C[C@@H](Nc2ncncc2C(=O)c2ccn(Cc3ccc(Cl)cc3F)n2)[C@H](O)[C@@H]1O", "inhibition at 0.111 µM [%]": 99}
{"compound": "CSCCn1ccc(C(=O)c2cncnc2N[C@@H]2C[C@H](COS(N)(=O)=O)[C@@H](O)C2)n1", "inhibition at 0.111 µM [%]": 42}
{"compound": "CC(c1cccc(Br)c1)n1ccc(C(=O)c2cncnc2N[C@@H]2C[C@H](COS(N)(=O)=O)[C@@H](O)C2)n1 (single isomer, unassigned)", "inhibition at 0.111 µM [%]": 99}
